- run description: Oral bioavailability in Wistar rat at 2 mg/kg
- Type: ADME, organism-based
- condition: in vivo

| line notation | value units | bioavailability |
| --- | --- | --- |
| NS(=O)(=O)c1cc(NC(=O)Cc2ccccc2)ccc1Oc1cccc(Cl)c1 | % | 43 |
| NS(=O)(=O)c1cc(NC(=O)Cc2cc(F)ccc2Cl)ccc1OCC1CCOCC1 | % | 44 |
| NS(=O)(=O)c1cc(NC(=O)Cc2ccccc2Cl)ccc1OCC1CCOCC1 | % | 21 |
